experiment: inhibitors of hydroxyurea-induced Chk1 phosphorylation, primary screen, imaging, HeLa, phospho-Chk1 antibody, percent positive cells (AID 1186); settings: hydroxyurea-induced phospho-Chk1 immunofluorescence imaging, higher = more signal
Active and inactive are the calls of the source. No rule for the calls is given here.
Known z-score of a selection of compounds
ASSAY_METRIC: z-score

In [3]: df
Out[3]:
                                   compound             result
0     CCCCC=C[C@@H](NC(=O)c1ccccc1)c1ccccc1   0.855 (inactive)
1  CCOC(=O)C1=CC[C@@H](c2ccccc2)N(S(=O)(=O)c2ccc(C)cc2)[C@H]1c1cccc(OC)c1   0.238 (inactive)
2  [N-]=[N+]=NCc1ccccc1C[C@@]1(C(=O)N2CCCCC2)N=C(c2ccc(OCCCO)cc2)O[C@@H]1c1ccccc1CN=[N+]=[N-]  -0.382 (inactive)
3  O=C1N(CCS(=O)(=O)c2ccccc2)Cc2ccccc2[C@@H]2OC(c3ccc(OCCCO)cc3)=N[C@]12CCS(=O)(=O)c1ccccc1   0.367 (inactive)
4  COc1ccc(C(O)C2C=CC3C(=O)N(c4ccccc4)C(=O)C3N2Nc2ccc(C(C)C)cc2)c2ccccc12 (stereo not drawn)   0.417 (inactive)
5  [N-]=[N+]=NC[C@H](Cc1ccccc1)NC(=O)c1ccccc1  0.0506 (inactive)
6  NC(=O)N1C(=O)C2C(C1=O)C1C=C(CCCO)C2C(C2CC2)N1Cc1cccc(OC(F)(F)F)c1 (stereo not drawn)   0.791 (inactive)
7  NC(=O)[C@H]1[C@@H]2C(=O)O[C@@H](c3ccccc3)[C@@H](c3ccccc3)N2[C@@H](c2ccc(O)cc2)[C@]12C(=O)Nc1ccc(C#CC3=CCCCC3)cc12  -0.165 (inactive)

###

assay: basal S. cerevisiae growth modulation, no modifier, primary screen, OD600, strain BY4716, 24 h, basal condition (AID 1173); conditions: OD600, 24 h, higher = more signal, called active from +8 up or from −8 down
Below, each entry is listed alongside its reported z-score.

COMPOUND	z-score
O=C1O[C@H](c2ccccc2)[C@H](c2ccccc2)N2[C@H]1[C@@H](C(=O)O)[C@]1(C(=O)Nc3ccc(C#CC4(O)CCCCCC4)cc31)[C@H]2c1ccc(O)cc1	-1.83
CCOC(=O)C1=CCC(c2ccccc2)N(S(=O)(=O)c2ccc([N+](=O)[O-])cc2)C1 (centres undefined)	1.36
COCC(=C=CC[C@@H](O)c1cccc(OCCO)c1)CCO	-0.773
C=CCC(OC(C)=O)[C@@H]1[C@@H](N(Cc2ccc(-c3ccccc3)cc2)C(=O)c2ccc(C)cc2)c2cc(OCCCO)ccc2N1C(=O)Cc1ccc2ccccc2c1 (some centres undefined)	-0.516
O=C1C2C=CC(C(O)c3ccc4c(c3)OCO4)N(Nc3ccccc3)C2C(=O)N1c1ccccc1 (centres undefined)	0.939
O=C(O)[C@H]1C[C@H]2C(=O)N[C@@H](Cc3ccccc3)C(=O)N2[C@H]1c1cccc(OCCO)c1	-1.46
CN(C)CCCCNC(=O)[C@H]1C[C@H]2C(=O)N[C@@H](CCCC[N+](C)(C)C)C(=O)N2[C@H]1c1ccc(O)cc1	-0.0503
C=CCC(OC(C)=O)[C@@H]1[C@@H](N(Cc2cccc3ccccc23)C(=O)c2cccc3ccccc23)c2cc(OCCCO)ccc2N1C(=O)c1ccc2ccccc2c1 (some centres undefined)	-0.775
CC(C)C(CO)N1C(=O)[C@@H]2[C@H]3C(=O)OCC=C[C@H]3OC23C=CCN(C(C)(C)C)C(=O)[C@@H]13 (some centres undefined)	0.542
CC(C)CCC[C@@H](C)[C@H]1CC[C@@]2(C)C3=C(CC[C@]12C)[C@@]1(C)CC[C@H](OC(=O)c2ccccc2)C(C)(C)C1CC3 (some centres undefined)	0.436
Cc1ccc(S[C@]2(C(=O)NCc3ccccc3)CC(=O)N(Cc3cc(C(F)(F)F)cc(C(F)(F)F)c3)[C@@H]2c2ccc(CO)cc2I)cc1	-3.9
CC1CC/C=C\[C@H]2OC34C=CCN(CCN5CCOCC5)C(=O)[C@H]3N(C(C)CO)C(=O)[C@@H]4C2C(=O)O1 (some centres undefined)	-0.348
[N-]=[N+]=Nc1ccccc1C[C@@]1(C(=O)O)N=C(c2ccc(OCCCO)cc2)O[C@@H]1c1ccccc1N=[N+]=[N-]	-2.04
CC(C)C[C@@H]1NC(=O)[C@H]2C[C@@H](C(=O)NCCCCCN)[C@@H](c3cccc(OCCO)c3)N2C1=O	-0.122

###

assay: compound binding in COS7 lysate, probe aLAP1, primary screen, cell lysate, small-molecule microarray (AID 1124); details: probe aLAP1, fluorescence, higher = more signal;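 also: lysate comes from COS7 cells expressing LAP1 and is applied at 0.3 µg/mL; score merges spot fluorescence near 667 nm with signal-to-noise over triplicate slides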
Each entry gets NOT MET if its composite z-score stays under 0.4, and MET if its composite z-score is 0.4 or above.

MOLECULE	CAT
C=C(COC)/C(=C/C[C@@H](OC(C)=O)c1ccc(CO)o1)c1cc(C(=O)OC)ccc1OC	MET
C=CCN1C(=O)[C@]2(O[C@H](CCO)[C@@H]([Si](C)(C)c3ccc(OC)cc3)[C@@H]2C)c2cc(N3C(=O)COc4ccccc43)ccc21	MET
O=c1cccc(-c2ccco2)o1	MET
CCCCCN1CC=CC23O[C@@H]4C=CCOC(=O)[C@@H]4[C@H]2C(=O)N(CCO)[C@@H]3C1=O (some centres not stated)	NOT MET
CCCC=C(CCC)[C@@H](NS(=O)(=O)c1cccc2cccnc12)c1ccc(-c2ccccc2)cc1	NOT MET
CC1CC/C=C\[C@H]2OC34C=CCN(CCN5CCOCC5)C(=O)[C@H]3N(C(C)CO)C(=O)[C@@H]4C2C(=O)O1 (some centres not stated)	NOT MET
COCCCNC(=O)[C@@]1(Sc2ccc(C)cc2)CC(=O)N(C(C)C)[C@@H]1c1ccc(CO)cc1I	MET
CCCNC(=O)[C@@]1(C)c2ccccc2C(=O)N(Cc2ccccc2)[C@H]1c1ccc(CO)cc1	MET
COCCOC(=O)N1C(=O)[C@@]2(c3cc(C#CCNC(N)=O)ccc31)[C@H](c1ccc(OCCO)cc1)N1[C@H](c3ccccc3)[C@H](c3ccccc3)OC(=O)[C@H]1[C@@H]2C(N)=O	MET
CC(C)[C@H]1NC(=O)[C@@]23C(=O)N[C@@H](Cc4ccccc4)C2[C@H](C)[C@@]2(C)O[C@H]2C3/C=C/CCC/C=C/CNC(=O)[C@H](Cc2ccccc2)NC1=O (some centres not stated)	NOT MET
COC(=O)c1c2oc(c1C(=O)OC)C(=O)N1CCC[C@H]1Cn1nncc1CN(Cc1ccccc1)C(=O)N[C@H](CO)CC2	MET
CC(C)CNC(=O)[C@@]1(C)c2ccccc2C(=O)N(Cc2cc(C(F)(F)F)cc(C(F)(F)F)c2)[C@H]1c1ccc(CO)cc1	NOT MET

###

system: Human papillomavirus type 1a protein E7 (residues 44-93); assay: HPV1a E7 fragment binders on microarrays, primary screen, biochemical, small-molecule microarray, residues 44-93, 635 nm fluorescence (AID 1108); details: small-molecule microarray binding, fluorescence 635 nm; higher = more signal;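 also: E7 fragment applied at 1 µg/mL in TBST for 1 h at 4 C; score combines spot fluorescence with its signal to noise ratio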
Listed here: items and their measured composite z-score.

MOLECULE	composite z-score
CCOC(=O)C1=CCC(c2ccccc2)N(S(=O)(=O)c2ccc([N+](=O)[O-])cc2)C1 (centres undefined)	0.992
CO[C@H]1O[C@H](CO)[C@@H](OC(=O)Nc2cccc(F)c2)[C@H](OC(=O)Nc2ccccc2-c2ccccc2)[C@H]1OC(=O)Nc1ccccc1-c1ccccc1	1.48
CCOC(=O)C1=C[C@@H](C(C)(C)C)N(S(=O)(=O)c2ccc(C)cc2)[C@H]1c1ccc(C)cc1	0.974
COCCOC(=O)N1C(=O)[C@@]2(c3cc(C#CCC(C(=O)OC)C(=O)OC)ccc31)[C@H](C(=O)NC[C@H](O)c1ccccc1)[C@H]1C(=O)O[C@H](c3ccccc3)[C@H](c3ccccc3)N1[C@@H]2c1ccc(O)cc1	1.37
COc1ccc(C(O)C2C=CC3C(=O)N(c4ccccc4)C(=O)C3N2Nc2ccccc2)cc1 (centres undefined)	1.39
CN(C)C(=O)[C@@]1(Cc2ccccc2)COC(c2ccc(OCCCO)cc2)=N1	-0.112
C=CCC(OC(C)=O)[C@@H]1[C@@H](N(Cc2ccc(-c3ccccc3)cc2)C(=O)c2ccc(C)cc2)c2cc(OCCCO)ccc2N1C(=O)Cc1ccc2ccccc2c1 (some centres undefined)	-0.579
COCCOC(=O)N1C(=O)[C@@]2(c3ccccc31)[C@H](c1ccccc1OCCO)N1[C@H](c3ccccc3)[C@H](c3ccccc3)OC(=O)[C@H]1[C@@H]2C(=O)N1CCCCCCC1	1.53
C=C(/C(=C/C[C@@H](OC(C)=O)c1ccc(CO)o1)c1cc(C(=O)OC)ccc1OC)C(C)C	0.443
C[C@]1(C(=O)NCCN2CCOCC2)c2ccccc2C(=O)N(Cc2cc(F)cc(C(F)(F)F)c2)[C@H]1c1ccc(CO)cc1	1.38
COCCCNC(=O)[C@@]1(Sc2ccc(C)cc2)CC(=O)N(C(C)C)[C@@H]1c1ccc(CO)cc1I	1.27
COc1ccc(C(O)C2C=CC3C(=O)N(c4ccccc4)C(=O)C3N2Nc2ccccc2F)cc1 (centres undefined)	0.726
O=C1OCCC=C[C@H]2OC34C=CCN(c5ccc(Cl)cc5)C(=O)[C@H]3N(CCCCCCO)C(=O)[C@@H]4C12 (some centres undefined)	-0.344
CO[C@H]1O[C@H](CO)[C@@H](OC(=O)c2ccc(Br)cc2)[C@@H]2OC(=O)[C@H](Cc3ccccc3)C/C=C/C[C@@H](Cc3ccccc3)C(=O)O[C@@H]12	0.79

Taken from PubChem BioAssay.
